Please provide measured Kapp for the entries that follow.
biological target: T1, human CD40 (human, UniProt P25942 21-193); experiment: antigen binding (method not named; ELISA in the rest of Example 2)
T1 construct: also called huCD40; TNFRSF5
T1 sequence (P25942 21-193 limits assumed): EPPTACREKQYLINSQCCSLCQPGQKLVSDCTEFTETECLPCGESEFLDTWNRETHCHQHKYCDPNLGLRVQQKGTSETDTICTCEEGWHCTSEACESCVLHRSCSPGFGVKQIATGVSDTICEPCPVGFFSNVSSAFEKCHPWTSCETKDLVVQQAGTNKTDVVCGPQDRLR
One number for each entry, in nM.

12D6-24 variant L4H2 (antibody, human IgG1, V domains shown) VH: QVQLVQSGAEVKKPGSSVKVSCKASGYTFTGYNMNWVRQAPGQGLEWMGNIDPYYGNTNYNQKFKGKTTLTADKSTSTAYMELSSLRSDDTAVYYCARLGLQLYALDYWGQGTLVTVSS VL: DIVLTQSPDSLAVSLGERATINCRASQSLVHSNANTYLHWYQQKPGQPPKLLIYKLTNRFFGVPDRFSGSGSGTDFTLTISSLQAEDVAVYYCQQSIHVPWTFGQGTKLEIK    0.25

For every item in the list below, what is its measured Kapp?
1. 12D6-24 variant L1H4 (antibody, human IgG1, V domains shown) VH: QVQLVQSGAEVKKPGASVKVSCKASGYTFTGYNMNWVRQAPGQGLEWMGNIDPYYGNTNYNQKFKGRTTLTADTSTSTAYMELSSLRSDDTAVYYCARLGLQLYALDYWGQGTLVTVSS VL: DIVMTQTPLSLPVTPGEPASISCRSSQSLVHSNANTYLHWYLQKPGQSPQLLIYKLTNRFFGVPDRFSGSGSGTDFTLKISRVEAEDVGVYYCSQSIHVPWTFGGGTKVEIK
2. 12D6-24-L4H4 (antibody, human IgG1, V domains shown) VH: QVQLVQSGAEVKKPGASVKVSCKASGYTFTGYNMNWVRQAPGQGLEWMGNIDPYYGNTNYNQKFKGRTTLTADTSTSTAYMELSSLRSDDTAVYYCARLGLQLYALDYWGQGTLVTVSS VL: DIVLTQSPDSLAVSLGERATINCRASQSLVHSNANTYLHWYQQKPGQPPKLLIYKLTNRFFGVPDRFSGSGSGTDFTLTISSLQAEDVAVYYCQQSIHVPWTFGQGTKLEIK
3. 12D6-24-L4H1 (antibody, human IgG1, V domains shown) VH: QVQLVQSGAEVKKPGASVKVSCKASGYTFTGYNMNWVRQAPGQGLEWMGNIDPYYGNTNYNQKFKGRVTMTTDTSTSTAYMELRSLRSDDTAVYYCARLGLQLYALDYWGQGTTVTVSS VL: DIVLTQSPDSLAVSLGERATINCRASQSLVHSNANTYLHWYQQKPGQPPKLLIYKLTNRFFGVPDRFSGSGSGTDFTLTISSLQAEDVAVYYCQQSIHVPWTFGQGTKLEIK

Response:
[0.22, 0.24, 0.25]

Taken from patent US20200339700A1.
